systemName: T1, Peptide-62 (cysteine pairing not given here; also: biotinylated, site not given here)
T1 peptide: IDFCAVYKWPVCQV
assayProtocol: ELISA, Fab on captured biotin-peptide
pEC50: −log10 of the molar value. Where no end group is shown, it is not given here.
Reported pEC50 by item:
readoutType: pEC50

INSERT INTO results (binder, readouttype, resultvalue) VALUES
  ('TBD-11 (HC R98A) (Fab, V domains shown, Fab; also called HC R98A mutant) VH: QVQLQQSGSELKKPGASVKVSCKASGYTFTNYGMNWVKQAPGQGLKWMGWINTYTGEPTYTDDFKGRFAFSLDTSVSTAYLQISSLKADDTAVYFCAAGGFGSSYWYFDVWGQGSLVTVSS VL: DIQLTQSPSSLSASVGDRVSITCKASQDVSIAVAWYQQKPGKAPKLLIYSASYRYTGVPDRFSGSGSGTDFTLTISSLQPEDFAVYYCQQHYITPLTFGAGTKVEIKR', 'pEC50', 6.87),
  ('TBD-6 (LC I93A) (Fab, V domains shown, Fab; also called LC I93A mutant) VH: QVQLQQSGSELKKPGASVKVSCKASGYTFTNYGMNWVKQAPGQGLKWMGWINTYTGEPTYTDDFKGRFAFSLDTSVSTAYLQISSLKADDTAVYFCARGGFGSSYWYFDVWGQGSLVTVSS VL: DIQLTQSPSSLSASVGDRVSITCKASQDVSIAVAWYQQKPGKAPKLLIYSASYRYTGVPDRFSGSGSGTDFTLTISSLQPEDFAVYYCQQHYATPLTFGAGTKVEIKR', 'pEC50', 8.29),
  ('TBD-21 (HC F108A) (Fab, V domains shown, Fab; also called HC F108A mutant) VH: QVQLQQSGSELKKPGASVKVSCKASGYTFTNYGMNWVKQAPGQGLKWMGWINTYTGEPTYTDDFKGRFAFSLDTSVSTAYLQISSLKADDTAVYFCARGGFGSSYWYADVWGQGSLVTVSS VL: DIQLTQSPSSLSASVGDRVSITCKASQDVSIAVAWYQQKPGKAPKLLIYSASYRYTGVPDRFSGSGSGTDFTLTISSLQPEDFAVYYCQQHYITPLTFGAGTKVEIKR', 'pEC50', 7.84),
  ('TBD-22 (HC D109A) (Fab, V domains shown, Fab; also called HC D109A mutant) VH: QVQLQQSGSELKKPGASVKVSCKASGYTFTNYGMNWVKQAPGQGLKWMGWINTYTGEPTYTDDFKGRFAFSLDTSVSTAYLQISSLKADDTAVYFCARGGFGSSYWYFAVWGQGSLVTVSS VL: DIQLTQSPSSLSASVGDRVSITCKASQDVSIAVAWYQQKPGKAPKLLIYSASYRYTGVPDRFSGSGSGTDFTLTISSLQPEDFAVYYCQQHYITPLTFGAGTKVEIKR', 'pEC50', 9.05),
  ('TBD-1 wt (Fab, V domains shown, Fab; the heavy chain entry is VH-CH1; also called wild-type anti-TROP2 Fab (hRS7); TROP2 Fab) VH: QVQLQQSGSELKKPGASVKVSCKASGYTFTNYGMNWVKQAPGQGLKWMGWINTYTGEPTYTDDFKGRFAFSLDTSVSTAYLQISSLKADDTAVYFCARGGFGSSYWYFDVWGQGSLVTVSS VL: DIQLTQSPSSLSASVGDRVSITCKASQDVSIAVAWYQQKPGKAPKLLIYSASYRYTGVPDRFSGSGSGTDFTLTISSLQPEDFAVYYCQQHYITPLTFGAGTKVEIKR', 'pEC50', 7.09),
  ('TBD-17 (HC S104A) (Fab, V domains shown, Fab; also called HC S104A mutant) VH: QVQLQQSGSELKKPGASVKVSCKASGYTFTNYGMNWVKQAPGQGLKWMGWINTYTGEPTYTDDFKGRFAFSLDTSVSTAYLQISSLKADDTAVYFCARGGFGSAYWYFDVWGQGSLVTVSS VL: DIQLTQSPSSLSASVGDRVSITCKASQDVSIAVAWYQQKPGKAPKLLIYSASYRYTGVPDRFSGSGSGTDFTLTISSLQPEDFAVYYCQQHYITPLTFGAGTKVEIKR', 'pEC50', 8.04);
